Just for reference, ChEMBL document CHEMBL5634112 is where these values come from.

- Test Details: Toxicity in F1 C57Bl6 x CBA mouse assessed as mortality at […] 125 to 500 mg/kg, po relative to control
- Type: organism-based
- Reported Conditions: in vivo, at 125 to 500 mg/kg, dose 125-500 mg/kg
Measurement Label: mortality (%)
Give bare numbers, in %.

Value of measured mortality for the entry `COc1c(N2C[C@@H]3CCCN(Cc4cnc(C)c(O)c4C)[C@@H]3C2)c(F)cc2c(=O)c(C(=O)O)cn(C3CC3)c12.Cl.Cl` : 0

---

- Test Details: Toxicity in po dosed male F1 C57Bl6 x CBA mouse assessed as lethal dose
- Format: organism-based
- Reported Conditions: in vivo
Measurement Label: LD50 (mg/kg)
Answers are plain numbers, in mg/kg.

For record `COc1c(N2C[C@@H]3CCCN(Cc4cnc(C)c(O)c4C)[C@@H]3C2)c(F)cc2c(=O)c(C(=O)O)cn(C3CC3)c12.Cl.Cl` the listed LD50 is 406
